test: Displacement of [3H]-flumazenil from GABAA receptor
quantity.kind: pIC50
Keep in mind that pIC50 stands for -log10 of concentration in molar terms.

The recorded pIC50 for entry O=C(/C=C/C=C/c1ccc2c(c1)OCO2)N1CCCCC1 equals 2.92

====

Quick reference: Activity of the listed items.
system: Oocyte; experiment: Activation of rat GABA alpha-1-beta-2-gamma-2 receptor expressed in xenopus oocytes assessed as potentiation of GABA-induced chloride current at 100 uM after 90 secs by two […] electrode voltage clamp assay; format: cell-based
A bare number is not enough; add the unit after it.

The recorded Activity for entry O=C(/C=C/CCc1ccc2c(c1)OCO2)N1CCCCC1 equals 138%

The recorded Activity for entry O=C(/C=C/C=C/c1ccc2c(c1)OCO2)N1CCCCC1 equals 226%

---
The recorded Activity for entry O=C(/C=C/C=C/c1ccc2c(c1)OCO2)N1CCCC1 equals -29%

The recorded Activity for entry CC(C)CNC(=O)/C=C/C=C/c1ccc2c(c1)OCO2 equals -10%

The recorded Activity for entry O=C(CCCC/C=C/c1ccc2c(c1)OCO2)N1CCCCC1 equals 32%
